tested on: Saccharomyces cerevisiae; assay: protein stability index of tFT-peptide fusion (C-terminal peptide) (PSI (0-1 scale)); higher = more stable (slower turnover); details: genetic background: wild type; temperature: 30 C
For each record, write down the corresponding protein stability index.
Give bare numbers.

Take each entry in turn and give its protein stability index.
1. DSSGATGLLYML
2. VYEVELSVRVTV
3. DFSNDCLRVLGD
4. VACCKIRSGKSH
5. SLREIIRKSLGL

Output:
1: 0.746; 2: 0.522; 3: 0.673; 4: 0.687; 5: 0.677

Take each entry in turn and give its protein stability index.
1. RGRGGDERSVRG
2. GSNPYNRHLINI
3. LRSPFPTPSDLV

Output:
0.644
0.693
0.714

Take each entry in turn and give its protein stability index.
1. CGLCLGGEWLVG
2. GMGESGAGMVGW
3. VRGFFTLSGNLI
4. LVPLPLPPPPPS
5. PPPSPPCTPSLI

Output:
[0.701, 0.727, 0.716, 0.672, 0.696]

----------
For each record, write down the corresponding protein stability index.
system: Saccharomyces cerevisiae; experiment: protein stability index of tFT-peptide fusion (C-terminal peptide) (PSI (0-1 scale)); higher = more stable (slower turnover); details: genetic background: wild type; temperature: 30 C
Answers are plain numbers.

> print(dat)
   sequence.record            quantity.name  test.value
1     GSCTVLPPPGPP  protein stability index       0.724
2     VPPPPPRLKRFA  protein stability index       0.639

Take each entry in turn and give its protein stability index.
1. GGFGVARVLYGL
2. WNPHFHALSWRL
3. GSHGRLSWHVSR
4. TVSEQWKLLGER
5. ATSGATILVLIA
6. VLVFPVVYWILR
7. PARLQSTLHPRF
8. CRWLGELGVWVF

Output:
1. 0.712
2. 0.684
3. 0.701
4. 0.736
5. 0.307
6. 0.543
7. 0.634
8. 0.637

----------
test system: Saccharomyces cerevisiae; assay: protein stability index of tFT-peptide fusion (C-terminal peptide) (PSI (0-1 scale)); higher = more stable (slower turnover); conditions: genetic background: wild type; temperature: 30 C;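 further: PSI is a weighted mean of sequencing reads over stability bins, variants kept only with over 10 reads, mCherry proximal and sfGFP distal, peptide attached via GGGS linker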
For each record, write down the corresponding protein stability index.
Give bare numbers.

These recorded examples may help you get a feel for the data.
> print(dat)
   sequence.record  test.value
1     YNMGILASQGCG       0.665
2     LLCHLSPSSSPI       0.786
3     PTPLPRISLTSV       0.667
4     VITGGFVVGCCG       0.623
5     FLTAGRLYDGRV       0.649

Take each entry in turn and give its protein stability index.
1. APPPLPPLPPSP
2. PPSPPFDFSPQN
3. GKNKRKTYGKRE
4. LVVEAIRSRAFK
5. AAASWRVRIGRG
6. SRLGVGGGLCSW
7. CTYAPSGRNSHF
8. RGCGAIYRGSCG

Output:
[0.727, 0.716, 0.722, 0.692, 0.743, 0.714, 0.766, 0.707]

Take each entry in turn and give its protein stability index.
1. GPSKTGRPLSGT
2. PSPPTLILPPHP
3. GKTRKGKKRKRK
4. SLVLSFPLLSLP
5. PAMPTEPKSSSG

Output:
1. 0.713
2. 0.663
3. 0.666
4. 0.697
5. 0.702

According to the records, this sequence ESIEVGTGDWGG displays protein stability index of 0.673
